TARGET DESC: T1, biotinylated CD3 epsilon:delta heterodimer protein (Amsbio AMS.CDD-H52WO) (Homo sapiens (Human), UniProt P07766 23-126; P04234 22-105)
T1 construct: also called CD3 heterodimer
ASSAY TEXT: BLI (Octet), CD3 on SA sensor, Fab analyte;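 note: biolayer interferometry with biotinylated CD3 epsilon:delta captured on streptavidin sensors, Fab analyte at several concentrations up to 300 nM, 100 s association then 300 s dissociation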
RECORDED METRIC: koff (s⁻¹)
Give bare numbers, in s⁻¹.

Past entries and their recorded results:
# BINDER, RECORDED METRIC, ASSAY VALUE
data = [
    ("huSP34.9.2 Fab-HF (Fab, V domains shown, also called HC9+LC2) VH: EVQLVESGGGLVQPGGSLRLSCAASGFTFSDYAMNWVRQAPGKGLEWVGRTRSKYNSYATYYAASVKGRFTISRDDSKNSLYLQMNSLKTEDTAVYYCVRHGNFGNSYVSWFAVWGQGTLVTVSS VL: QAVVTQEPSLTVSPGGTVTLTCGSSTGAVTTSNYANWVQQKPGQAPRGLIGGTSNRAPWTPARFSGSLLGGKAALTLSGAQPEDEAEYYCALWYSNLWVFGGGTKLTVL", "koff", 0.145),
    ("huSP34.5.1 Fab-HF (Fab, V domains shown, also called HC5+LC1) VH: EVQLVESGGGLVQPGGSLRLSCAASGFTFSTYAMNWVRQAPGKGLEWVGRIRSKYNNYATYYADSVKGRFTISRDNSKNTLYLQMNSLRAEDTAVYYCVRHGNFGHSYVSWFAVWGQGTLVTVSS VL: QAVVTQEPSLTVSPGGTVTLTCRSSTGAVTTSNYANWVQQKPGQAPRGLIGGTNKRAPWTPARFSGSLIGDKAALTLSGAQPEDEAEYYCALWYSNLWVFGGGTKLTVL", "koff", 0.0365),
]

Now look at this entry.
Exercise: Please report the recorded koff for huSP34.8.1 Fab-HF (Fab, V domains shown, also called HC8+LC1) VH: EVQLVESGGGLVQPGGSLRLSCAASGFTFSDYAMNWVRQAPGKGLEWVGRTRSKYNNYATYYAASVKGRFTISRDDSKNSLYLQMNSLKTEDTAVYYCVRHGNFGHSYVSWFAVWGQGTLVTVSS VL: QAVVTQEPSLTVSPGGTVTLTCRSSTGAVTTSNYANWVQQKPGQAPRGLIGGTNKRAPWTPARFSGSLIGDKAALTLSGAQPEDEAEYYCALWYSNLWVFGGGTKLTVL .
Key: 0.0823
